- Test system: HOP-92
- protocol: Growth inhibition of human HOP92 cells at 10 uM after 48 hrs by sulforhodamine B assay
- Assay type: functional
- condition_details: HOP-92, 48 h, read-out: GI
recorded_endpoint: inhibition of growth at 10 µM (%)
Reply numerically in %, unit not repeated.

Prompt line: Please give the measured inhibition of growth at 10 µM for this compound: `CCc1cc(CC)n(-c2ccncc2S(N)(=O)=O)n1`
Response line: 1

Prompt line: Please give the measured inhibition of growth at 10 µM for this compound: `NS(=O)(=O)c1cnccc1N1CCN(c2ccccn2)CC1`
Response line: 11

Prompt line: Please give the measured inhibition of growth at 10 µM for this compound: `NS(=O)(=O)c1cnccc1N1CCC(Cc2ccccc2)CC1`
Response line: 39

Prompt line: Please give the measured inhibition of growth at 10 µM for this compound: `Cc1nn(-c2ccncc2S(N)(=O)=O)c(C)c1C`
Response line: 25

Prompt line: Please give the measured inhibition of growth at 10 µM for this compound: `CSc1nc(N)n(-c2ccncc2S(N)(=O)=O)n1`
Response line: 20

---

- Tested on: MDA-MB-435
- protocol: Growth inhibition of human MDA-MB-435 cells at 10 uM after 48 hrs by sulforhodamine B assay
- Type: functional
- condition_details: MDA-MB-435, 48 h, read-out: GI
recorded_endpoint: inhibition of growth at 10 µM (%)
Reply numerically in %, unit not repeated.

Prompt line: Please give the measured inhibition of growth at 10 µM for this molecule: `COc1ccccc1N1CCN(c2ccncc2S(N)(=O)=O)CC1`
Response line: 2

Prompt line: Please give the measured inhibition of growth at 10 µM for this molecule: `NS(=O)(=O)c1cnccc1N1CCN(c2ccc(Cl)c(Cl)c2)CC1`
Response line: 32

Prompt line: Please give the measured inhibition of growth at 10 µM for this molecule: `NS(=O)(=O)c1cnccc1N1CCN(c2ccccn2)CC1`
Response line: 2

Prompt line: Please give the measured inhibition of growth at 10 µM for this molecule: `NS(=O)(=O)c1cnccc1N1CCN(c2ccc(Cl)cc2)CC1`
Response line: 1

---

Field: inhibition of growth at 10 µM. Provide a value for each of the molecules that follow.
- Tested on: KM12
- protocol: Growth inhibition of human KM12 cells at 10 uM after 48 hrs by sulforhodamine B assay
- Type: functional
- condition_details: KM12, 48 h, read-out: GI
Reply numerically in %, unit not repeated.

Prompt line: Please give the measured inhibition of growth at 10 µM for this molecule: `NS(=O)(=O)c1cnccc1N1CCN(Cc2ccccc2)CC1`
Response line: 1

Prompt line: Please give the measured inhibition of growth at 10 µM for this molecule: `NS(=O)(=O)c1cnccc1N1CCN(Cc2ccc3c(c2)OCO3)CC1`
Response line: 1

Prompt line: Please give the measured inhibition of growth at 10 µM for this molecule: `NS(=O)(=O)c1cnccc1N1CCC(Cc2ccccc2)CC1`
Response line: 2

Prompt line: Please give the measured inhibition of growth at 10 µM for this molecule: `NS(=O)(=O)c1cnccc1N1CCN(c2ccc(Cl)c(Cl)c2)CC1`
Response line: 18

---

- System: OVCAR-5
- protocol: Growth inhibition of human OVCAR5 cells at 10 uM after 48 hrs by sulforhodamine B assay
- Type: functional
Active and inactive are the calls of the source. No cut-off for these calls is given here.
recorded_endpoint: growth inhibition (GI)

Worked cases, growth inhibition (GI) given:
chemical_structure: NS(=O)(=O)c1cnccc1N1CCN(c2ccccn2)CC1
growth inhibition (GI): inactive
//
chemical_structure: CCc1cc(CC)n(-c2ccncc2S(N)(=O)=O)n1
growth inhibition (GI): inactive
//
chemical_structure: CSc1nc(N)n(-c2ccncc2S(N)(=O)=O)n1
growth inhibition (GI): inactive
//
chemical_structure: Cc1nn(-c2ccncc2S(N)(=O)=O)c(C)c1C
growth inhibition (GI): inactive
//
chemical_structure: NS(=O)(=O)c1cnccc1N1CCN(c2ncccn2)CC1
growth inhibition (GI): inactive

# evaluate next
Prompt line: Please give the measured growth inhibition (GI) for this compound: `NS(=O)(=O)c1cnccc1N1CCN(c2ccccc2F)CC1`
Response line: inactive
